Cited source for all entries: patent US9115093B2

System Name: neutrophil elastase (Homo sapiens, UniProt P08246)
Sequence (P08246 30-247 limits assumed): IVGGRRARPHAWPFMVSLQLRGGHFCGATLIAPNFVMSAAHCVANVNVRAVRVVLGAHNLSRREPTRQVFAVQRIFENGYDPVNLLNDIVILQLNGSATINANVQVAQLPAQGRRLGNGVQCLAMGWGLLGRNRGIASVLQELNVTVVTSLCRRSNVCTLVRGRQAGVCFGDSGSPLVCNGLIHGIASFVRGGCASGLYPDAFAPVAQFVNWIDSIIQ
Test: Human Neutrophil Elastase Assay
Condition Summary: substrate MeOSuc-Ala-Ala-Pro-Val-AMC, pH 7.5, room temperature
pIC50: −log10 of the molar value.
Decide using pIC50: a value greater than or equal to 8 is criterion met, a smaller one is criterion not met.

Compound: N#Cc1ccc(C2NC(=O)N(c3cccc(C(F)(F)F)c3)C3=C2C(=O)CC(C(=O)O)C3)cc1 (centres unmarked) [Example 10]
Class Label: criterion not met

Compound: CC(=O)NCCNC(=O)CN1C(=O)N(c2cccc(C(F)(F)F)c2)C2=C(C(=O)CCC2)C1c1ccc(C#N)cc1 (centres unmarked) [Example 36.26]
Class Label: criterion not met

Compound: COC1CCN(C(=O)N2C(=O)N(c3cccc(C(F)(F)F)c3)C3=C(C(=O)CCC3)C2c2ccc(C#N)cc2)C1 (centres unmarked) [Example 39.10]
Class Label: criterion not met

Compound: CCCNC(=O)N1C(=O)N(c2cccc(C(F)(F)F)c2)C2=C(C(=O)CCC2)C1c1ccc(C#N)cc1 (centres unmarked) [Example 39.2]
Class Label: criterion met

Compound: CS(=O)(=O)c1cc(C#N)ccc1[C@@H]1C2=C(CCCC2=O)N(c2cccc(C(F)(F)F)c2)C(=O)N1C(=O)NCC(F)F [Example 75.7]
Class Label: criterion met

# evaluate next
Prompt: Check if pIC50 >= 8 (inclusive). Item: COCCCNC(=O)CN1C(=O)N(c2cccc(C(F)(F)F)c2)C2=C(C(=O)CCC2)C1c1ccc(C#N)cc1 (centres unmarked) [Example 36.13]
Completion: criterion not met

###

System Name: neutrophil elastase (Homo sapiens, UniProt P08246)
Sequence (P08246 30-247 limits assumed): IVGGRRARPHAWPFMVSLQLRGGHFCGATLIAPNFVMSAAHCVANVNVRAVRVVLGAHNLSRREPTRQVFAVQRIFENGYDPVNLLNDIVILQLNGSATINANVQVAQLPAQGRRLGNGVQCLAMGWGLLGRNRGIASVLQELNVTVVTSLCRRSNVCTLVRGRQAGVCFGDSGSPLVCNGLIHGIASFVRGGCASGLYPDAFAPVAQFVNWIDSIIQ
Test: Neutrophil elastase inhibitory activity in human plasma
Condition Summary: neutrophil elastase enriched human plasma (zymosan-stimulated blood), substrate MeOSuc-Ala-Ala-Pro-Val-AMC
Result Type: EC50 (nM)
Please state the figure in nM; there is no need to write the unit.

Some entries whose results are on file:
Compound: N#Cc1ccc(C2C3=C(CCCC3=O)N(c3cccc(C(F)(F)F)c3)C(=O)N2C(=O)NCCO)cc1 (stereo not drawn) [Example 39.3]
System Name: neutrophil elastase (Homo sapiens, UniProt P08246)
EC50 [nM]: 6
--
Compound: CN(C)CCNC(=O)N1C(=O)N(c2cccc(C(F)(F)F)c2)C2=C(C(=O)CCC2)C1c1ccc(C#N)cc1 (stereo not drawn) [Example 39.8]
System Name: neutrophil elastase (Homo sapiens, UniProt P08246)
EC50 [nM]: 6
--
Compound: CN1C(=O)N(c2ccnc(C(F)(F)F)c2)C2=C(C(=O)CCC2)C1c1ccc(C#N)cc1S(C)(=O)=O (stereo not drawn) [Example 64]
System Name: neutrophil elastase (Homo sapiens, UniProt P08246)
EC50 [nM]: 1
--
Compound: CN1C(=O)N(c2cccc(C(F)(F)F)c2)C2=C(C(=O)CCC2)[C@H]1c1ccc(C#N)cc1S(C)(=O)=O [Example 48]
System Name: neutrophil elastase (Homo sapiens, UniProt P08246)
EC50 [nM]: 1

Prompt: // query EC50 value for entry CS(=O)(=O)CCNC(=O)N1C(=O)N(c2cccc(C(F)(F)F)c2)C2=C(C(=O)CCC2)C1c1ccc(C#N)cc1 (stereo not drawn) [Example 39.19]
Completion: 9
